test system: A549; test: Euclidean distance of Cell Painting phenotypic profile (signed KS, 77 features) to DMSO centroid (dimensionless distance); 5 or 10 uM (library dependent); higher = stronger phenotypic change vs DMSO (phenoactivity); conditions: 48 h
Counter-ions that a name gives are not always drawn.
Measurement Kind: Euclidean distance
Respond numerically, and do not add a unit to the figure.

Known results for compounds:
Compound	Reported
Cc1cc(C(=O)Nc2nc3cccc(Cl)c3n2[C@@H]2CCCCN(C(=O)/C=C/CN(C)C)C2)ccn1 [Nazartinib (EGF816. NVS-816)]	1.93
O=C(O[C@@H]1Cc2c(O)cc(O)cc2O[C@@H]1c1cc(O)c(O)c(O)c1)c1cc(O)c(O)c(O)c1 [(-)-Epigallocatechin Gallate]	0.875
Nc1ccc(/N=N/c2ccccc2)c(N)n1 [Phenazopyridine HCl]	0.654

Kindly review the next compound as well.
Hello, please tell me recorded Euclidean distance for this one: `CN(C)CCOc1ccc(-c2nc(-c3ccncc3)c(-c3ccc4c(c3)CC/C4=N\O)[nH]2)cc1`
1.63

* * *

test system: OVCAR4; experiment: Euclidean distance of Cell Painting phenotypic profile (signed KS, 77 features) to DMSO centroid (dimensionless distance); 5 or 10 uM (library dependent); higher = stronger phenotypic change vs DMSO (phenoactivity); conditions: 48 h
Measurement Kind: Euclidean distance
Lab note: jot the number down without any unit.

Solved entries (count: 7):
Compound	Measurement Kind	Reported
O=C1c2c(O)cc(O)cc2OC(c2ccc(O)c(O)c2)C1O (stereo not drawn) [Taxifolin (Dihydroquercetin)]	Euclidean distance	0.517
CC(=O)Nc1ccc(C(=O)Nc2ccccc2N)cc1	Euclidean distance	1.94
Cc1ccc(-c2ccc(C)cn2)nc1	Euclidean distance	0.964
C[C@H]1C[C@H]2[C@@H]3CCC4=CC(=O)C=C[C@]4(C)[C@@]3(F)[C@@H](O)C[C@]2(C)[C@@]1(O)C(=O)CO	Euclidean distance	2
O=C1Nc2ccccc2/C1=C1/Nc2ccccc2C1=O	Euclidean distance	1.03
COc1cc2/c(=N/c3ccc(Br)cc3F)nc[nH]c2cc1OCC1CCN(C)CC1 [Vandetanib (ZD6474)]	Euclidean distance	2.94
Nc1cccc2c1C(=O)N(C1CCC(=O)NC1=O)C2=O (stereo not drawn) [Pomalidomide]	Euclidean distance	0.886

Hello, please tell me recorded Euclidean distance for this one: `Cc1cc(Nc2ncnc3ccc(-c4ccc(CNCCS(C)(=O)=O)o4)cc23)ccc1Oc1ccn2ncnc2c1`
1.22

* * *

Item-by-item account of Euclidean distance
tested on: FB; experiment: Euclidean distance of Cell Painting phenotypic profile (signed KS, 77 features) to DMSO centroid (dimensionless distance); 5 or 10 uM (library dependent); higher = stronger phenotypic change vs DMSO (phenoactivity); settings: 48 h
Counter-ions that a name gives are not always drawn.
Write the number on its own, no unit after it.

Compound	Euclidean distance
N=C(N)c1ccc(OCCCCCOc2ccc(C(=N)N)cc2)cc1	0.958
CNC(=O)Nc1ccc(-c2nc(N3CC4CCC(C3)O4)c3cnn(C4CCC5(CC4)OCCO5)c3n2)cc1	4.69
CCOc1ccccc1OC(c1ccccc1)C1CNCCO1 (stereo not drawn) [Reboxetine mesylate]	0.844
CN(C)CCCN1c2ccccc2CCc2ccc(Cl)cc21 [Clomipramine HCl]	1.93
CCOC(=O)[C@H](CCc1ccccc1)N[C@H]1CCCN2CCC[C@@H](C(=O)O)N2C1=O [Cilazapril Monohydrate]	1.03
CC(C)(Cc1ccc2ccccc2c1)NC[C@@H](O)COc1cccc(Cl)c1C#N	1.06
O=C(O)c1cccnc1	0.953
O=c1ccc2cc(O)c(O)cc2o1	0.959
CC(=O)[C@H]1CC[C@H]2[C@@H]3CCC4=CC(=O)CC[C@]4(C)[C@H]3CC[C@]12C	0.883
CS(=O)(=O)c1ccc([C@@H](O)[C@@H](CF)NC(=O)C(Cl)Cl)cc1	1.12

Please look at CO[C@@]1(NC(=O)CSC[C@@H](N)C(=O)O)C(=O)N2C(C(=O)O)=C(CSc3nnnn3C)CS[C@@H]21 [Cefminox Sodium] and tell me its recorded Euclidean distance on FB.
1.02

* * *

system: FB; experiment: Euclidean distance of Cell Painting phenotypic profile (signed KS, 77 features) to DMSO centroid (dimensionless distance); 5 or 10 uM (library dependent); higher = stronger phenotypic change vs DMSO (phenoactivity); conditions: 48 h
Where a name gives a salt, the structure may show the parent alone.
Parameter threshold = 2. Response is TRUE when Euclidean distance meets or exceeds it, else FALSE.

These solved cases illustrate the format of a correct answer.
Compound	Group
CNC(=O)c1ccccc1Nc1nc(Nc2ccc(N3CCOCC3)cc2OC)ncc1Cl	TRUE
O=C(NC1CCNCC1)c1n[nH]cc1NC(=O)c1c(Cl)cccc1Cl	TRUE
COc1cc2c(cc1OC)[C@H]1C[C@@H](OC(=O)[C@@H](N)C(C)C)[C@H](CC(C)C)CN1CC2 [Valbenazine tosylate]	FALSE
FC(F)(F)c1ccc(CNc2ccc(Cc3c[nH]c4ncc(Cl)cc34)cn2)cn1	FALSE
C[C@@H]1C[C@H]2[C@@H]3CCC4=CC(=O)C=C[C@]4(C)[C@@]3(F)[C@@H](O)C[C@]2(C)[C@@]1(O)C(=O)CO	FALSE

Would you say CC[C@H]1OC(=O)[C@H](C)[C@@H](O[C@H]2C[C@@](C)(OC)[C@@H](O)[C@H](C)O2)[C@H](C)[C@@H](O[C@@H]2O[C@H](C)C[C@H](N(C)C)[C@H]2O)[C@](C)(O)C[C@@H](C)C(=O)[C@H](C)[C@@H](O)[C@]1(C)O [Erythromycin thiocyanate] shows Euclidean distance at minimum 2?
FALSE

* * *

system: FB; assay: Euclidean distance of Cell Painting phenotypic profile (signed KS, 77 features) to DMSO centroid (dimensionless distance); 5 or 10 uM (library dependent); higher = stronger phenotypic change vs DMSO (phenoactivity); details: 48 h
Structures can show the parent of a compound that is named as a salt.
Reported Euclidean distance is given for each of the following compounds.
The answer should be written as a number, with no unit following it.

Guide cases for Euclidean distance, answers given:
Compound	Reported
CC(C)CN(C[C@@H](OP(=O)(O)O)[C@H](Cc1ccccc1)NC(=O)O[C@H]1CCOC1)S(=O)(=O)c1ccc(N)cc1 [Fosamprenavir calcium salt]	0.737
CC(C)OC(=O)[C@H](C)N[P@](=O)(OC[C@H]1O[C@@H](n2ccc(=O)[nH]c2=O)[C@](C)(F)[C@@H]1O)Oc1ccccc1	0.694
COc1cc(N2CCC(N3CCN(C)CC3)CC2)ccc1Nc1ncc(Cl)c(Nc2ccccc2S(=O)(=O)C(C)C)n1	3.6
C=CC[N+]1([C@H]2C[C@H]3[C@@H]4CC[C@H]5C[C@H](O)[C@@H](N6CCOCC6)C[C@]5(C)[C@H]4CC[C@]3(C)[C@H]2OC(C)=O)CCCC1 [Rocuronium Bromide]	1.08
Cc1cc(Cn2cnc3c2CC(C(=O)O)N(C(=O)C(c2ccccc2)c2ccccc2)C3)ccc1N(C)C (stereo not given)	1.08
CC1(C)[C@H](C(=O)O)N2C(=O)C[C@H]2S1(=O)=O [Sulbactam sodium]	0.933

Provide Euclidean distance value for the following compound: `CC[C@H](C)[C@H](NC(=O)[C@H]([C@@H](C)CC)N(C)C(C)=O)C(=O)N[C@H](C(=O)N[C@@H](CC(C)C)C(=O)[C@@]1(C)CO1)[C@@H](C)O`
2.62

Specify Euclidean distance for CC(C)NCC(O)COc1cccc2[nH]ccc12 (stereo not given) and stop.
1.06

Determine its reported Euclidean distance: COc1cc(C2Oc3cc([C@H]4Oc5cc(O)cc(O)c5C(=O)[C@@H]4O)ccc3OC2CO)ccc1O (stereo not given in full)
0.713

Give a short answer stating reported Euclidean distance for NC(=O)N1c2ccccc2CC(=O)c2ccccc21 [Oxcarbazepine] .
1.19

Give the reported value of Euclidean distance for this record: `COc1ccc(CNc2nc(N3CCC[C@H]3CO)ncc2C(=O)NCc2ncccn2)cc1Cl`
0.94

Supply measured Euclidean distance of `CC(C)(Oc1ccc(Cl)cc1)C(=O)O` in your reply.
0.793

Tell me Euclidean distance reported for C[C@@H](O[C@H]1OCCN(Cc2nn(P(=O)(O)O)c(=O)[nH]2)[C@H]1c1ccc(F)cc1)c1cc(C(F)(F)F)cc(C(F)(F)F)c1 [Fosaprepitant dimeglumine salt]
1.21

Tell us which Euclidean distance value is on record for `Nc1cc(C(Cl)=C(Cl)Cl)c(S(N)(=O)=O)cc1S(N)(=O)=O`
0.676

Tell me measured Euclidean distance for Cc1ccc(C(=O)C(C)CN2CCCCC2)cc1 (stereo not given) [Tolperisone HCl] please.
0.909

* * *

system: A549; test: Euclidean distance of Cell Painting phenotypic profile (signed KS, 77 features) to DMSO centroid (dimensionless distance); 5 or 10 uM (library dependent); higher = stronger phenotypic change vs DMSO (phenoactivity); conditions: 48 h
Euclidean distance listing for selected molecules.

Past entries and their recorded results:
Molecule	Euclidean distance
COc1ccc(/C=C/C(=O)Nc2ccccc2C(=O)O)cc1OC [Trans-Tranilast]	0.649
Clc1ccc(CCC(Cn2ccnc2)Sc2c(Cl)cccc2Cl)cc1 (stereo not given) [Butoconazole]	0.956
CC(C)(Oc1ccc(CCNC(=O)c2ccc(Cl)cc2)cc1)C(=O)O [Bezafibrate]	1.16
CC12CCC(CC1)C(C)(C)O2 [Eucalyptol]	0.614

Let us move to another entry and its Euclidean distance.
Give the reported Euclidean distance for this molecule. C[C@@H]1O[C@@H](Oc2c(-c3ccc(O)c(O)c3)oc3cc(O)cc(O)c3c2=O)[C@H](O)[C@H](O)[C@H]1O [Quercitrin]
1.14

Every entry's value here was drawn from the supplement of paper PMC10127200.
